- System Tested: full length GAK protein N-terminally fused with NanoLuc luciferase (Homo sapiens)
- Sequence (O14976 2-1311): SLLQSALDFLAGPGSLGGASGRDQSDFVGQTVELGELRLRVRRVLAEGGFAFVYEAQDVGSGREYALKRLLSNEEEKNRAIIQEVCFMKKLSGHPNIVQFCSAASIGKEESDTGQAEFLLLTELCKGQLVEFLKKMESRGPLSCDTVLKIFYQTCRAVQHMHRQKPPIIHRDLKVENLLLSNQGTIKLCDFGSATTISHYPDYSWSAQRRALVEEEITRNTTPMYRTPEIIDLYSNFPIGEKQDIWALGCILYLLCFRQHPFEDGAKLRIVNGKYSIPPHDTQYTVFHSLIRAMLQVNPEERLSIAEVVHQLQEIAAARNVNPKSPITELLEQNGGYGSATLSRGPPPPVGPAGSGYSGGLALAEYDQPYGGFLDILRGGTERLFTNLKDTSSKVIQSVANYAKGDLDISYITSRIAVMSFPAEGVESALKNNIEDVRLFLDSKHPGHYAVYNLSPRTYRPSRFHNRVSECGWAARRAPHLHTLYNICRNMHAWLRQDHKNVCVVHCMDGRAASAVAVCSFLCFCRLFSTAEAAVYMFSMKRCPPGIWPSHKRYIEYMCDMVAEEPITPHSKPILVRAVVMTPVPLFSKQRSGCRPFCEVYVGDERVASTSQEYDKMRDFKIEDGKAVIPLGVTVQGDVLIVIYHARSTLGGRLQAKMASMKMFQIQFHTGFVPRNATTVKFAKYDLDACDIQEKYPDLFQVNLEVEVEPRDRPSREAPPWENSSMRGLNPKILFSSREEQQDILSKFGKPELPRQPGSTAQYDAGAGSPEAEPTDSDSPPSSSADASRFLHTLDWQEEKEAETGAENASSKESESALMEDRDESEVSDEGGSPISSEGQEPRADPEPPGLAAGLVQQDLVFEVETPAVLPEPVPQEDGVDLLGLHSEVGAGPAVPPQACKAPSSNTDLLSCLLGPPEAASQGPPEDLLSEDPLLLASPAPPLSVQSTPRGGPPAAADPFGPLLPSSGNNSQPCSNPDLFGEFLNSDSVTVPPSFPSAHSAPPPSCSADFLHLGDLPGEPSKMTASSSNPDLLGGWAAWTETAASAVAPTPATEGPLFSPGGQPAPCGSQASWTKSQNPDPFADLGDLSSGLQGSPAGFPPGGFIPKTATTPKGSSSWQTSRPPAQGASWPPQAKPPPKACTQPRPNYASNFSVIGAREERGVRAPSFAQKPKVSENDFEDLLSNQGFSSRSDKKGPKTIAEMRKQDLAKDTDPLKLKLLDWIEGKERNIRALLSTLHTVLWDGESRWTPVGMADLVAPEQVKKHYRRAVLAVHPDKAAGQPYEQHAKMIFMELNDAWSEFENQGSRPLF
- Assay Details: cell-based
- Set-up: species or system HEK293T
Kindly supply the reported IC50 values for the records listed here.
Give bare numbers, in µM.

Study these solved cases before continuing.
> print(dat)
                         chemical.structure                             system.tested  unit.tag  endpoint.value
1      COc1cc(Nc2ncnc3ccc(F)cc23)cc(OC)c1OC  full length GAK protein N-terminally fused with NanoLuc luciferase (Homo sapiens)        µM             3.6
2  COCCOc1cc2ncnc(Nc3cc(OC)c(OC)c(OC)c3)c2cc1OCCOC  full length GAK protein N-terminally fused with NanoLuc luciferase (Homo sapiens)        µM               3
3   COc1ccc2c(Nc3cc(OC)c(OC)c(OC)c3)ncnc2c1  full length GAK protein N-terminally fused with NanoLuc luciferase (Homo sapiens)        µM             1.6
4      COc1cc(Nc2ncnc3ccc(C)cc23)cc(OC)c1OC  full length GAK protein N-terminally fused with NanoLuc luciferase (Homo sapiens)        µM             2.1
5     COc1cc(Nc2ncnc3ccc(Br)cc23)cc(OC)c1OC  full length GAK protein N-terminally fused with NanoLuc luciferase (Homo sapiens)        µM             1.8
6     COc1cc(Nc2ncnc3cc(Cl)ccc23)cc(OC)c1OC  full length GAK protein N-terminally fused with NanoLuc luciferase (Homo sapiens)        µM             3.2

Hello, I would appreciate it if you could give IC50 for each entry below.
1. COc1cc(Nc2ncnc3cc(Br)ccc23)cc(OC)c1OC
2. COc1cc(Nc2ncnc3ccccc23)cc(OC)c1OC
3. COc1cc(Nc2ncnc3ccc(C(F)(F)F)cc23)cc(OC)c1OC
4. COc1cc(Nc2ncnc3cc(I)ccc23)cc(OC)c1OC
5. COc1cc(Nc2ncnc3ccc(I)cc23)cc(OC)c1OC
6. COc1ccc2ncnc(Nc3cc(OC)c(OC)c(OC)c3)c2c1
7. COc1cc(Nc2ncnc3ccc(Cl)cc23)cc(OC)c1OC

Response:
1. 4.2
2. 4.6
3. 4.5
4. 2.4
5. 0.89
6. 3.4
7. 2.4

----------
- System Tested: GAK (Homo sapiens, UniProt O14976)
- Sequence (O14976 12-347 limits assumed): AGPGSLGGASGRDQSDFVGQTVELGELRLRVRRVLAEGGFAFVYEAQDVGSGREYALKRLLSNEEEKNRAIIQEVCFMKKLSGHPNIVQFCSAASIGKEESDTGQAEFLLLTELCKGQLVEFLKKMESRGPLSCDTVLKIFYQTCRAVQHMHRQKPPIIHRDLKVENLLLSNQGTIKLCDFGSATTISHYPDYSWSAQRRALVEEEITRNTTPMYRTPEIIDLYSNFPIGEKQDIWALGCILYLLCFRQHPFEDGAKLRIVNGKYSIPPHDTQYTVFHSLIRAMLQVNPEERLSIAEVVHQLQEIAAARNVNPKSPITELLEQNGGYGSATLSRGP
- Assay Details: biochemical
Quantity Kind: pKi
Answers are plain numbers, as −log10 of the molar value.

Request: Looking for the measured pKi of C#Cc1cccc(Nc2ncnc3cc(C#N)ccc23)c1 [compound 67, 67] , can you help?
Response: 7.00

----------
- System Tested: full length GAK protein N-terminally fused with NanoLuc luciferase (Homo sapiens)
- Assay Details: nanoBRET cellular target engagement
- Type: cell-based
- Recorded Conditions: HEK293T cells, tracer displacement
Quantity Kind: IC50 (nM)
Give bare numbers, in nM.

Request: What measured IC50 is associated with C#Cc1cccc(Nc2c(C#N)cnc3cc(OC)c(OC)cc23)c1 [compound 82, 82] on full length GAK protein N-terminally fused with NanoLuc luciferase (Homo sapiens)?
Response: 40

----------
- System Tested: STK10 (Homo sapiens)
- Sequence (O94804 36-294 limits assumed): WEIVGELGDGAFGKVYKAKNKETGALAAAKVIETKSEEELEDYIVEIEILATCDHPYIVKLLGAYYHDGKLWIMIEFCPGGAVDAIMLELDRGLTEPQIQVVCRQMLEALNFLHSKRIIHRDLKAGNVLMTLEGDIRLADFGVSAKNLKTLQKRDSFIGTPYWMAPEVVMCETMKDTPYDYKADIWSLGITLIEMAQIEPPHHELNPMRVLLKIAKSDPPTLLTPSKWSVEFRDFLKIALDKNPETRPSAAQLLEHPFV
- Assay Details: biochemical
Quantity Kind: Ki (nM)
Numbers only, in nM.

> print(dat)
                   chemical.structure         system.tested  endpoint.value
1    C#Cc1cccc(Nc2ncnc3cc(I)ccc23)c1F  STK10 (Homo sapiens)             270
2   C#Cc1cc(Nc2ncnc3cc(I)ccc23)ccc1Cl  STK10 (Homo sapiens)             240
3  C#Cc1cccc(Nc2ncnc3cc(C#N)ccc23)c1F  STK10 (Homo sapiens)             500
4    C#Cc1cc(Nc2ncnc3ccc(I)cc23)ccc1F  STK10 (Homo sapiens)             870

Request: Ki for `C#Cc1cccc(Nc2ncnc3ccc(I)cc23)c1F` ?
Response: 6700

----------
- System Tested: SLK (Homo sapiens, UniProt Q9H2G2)
- Sequence (Q9H2G2 34-292): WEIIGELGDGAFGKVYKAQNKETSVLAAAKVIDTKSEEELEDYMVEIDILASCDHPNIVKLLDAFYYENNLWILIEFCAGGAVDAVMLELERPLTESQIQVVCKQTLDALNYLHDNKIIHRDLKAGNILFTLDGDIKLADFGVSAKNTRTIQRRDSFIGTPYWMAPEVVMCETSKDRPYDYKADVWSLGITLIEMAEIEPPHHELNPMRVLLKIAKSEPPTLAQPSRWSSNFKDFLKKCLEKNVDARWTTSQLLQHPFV
- Assay Details: TR-FRET binding displacement assay
Ki strictly under 5 µM means Fulfilled; at 5 µM or over means Not fulfilled.

Request: Say whether its Ki is strictly beneath 5 µM. Entry: CCOc1cc2ncc(C#N)c(Nc3ccc(F)c(Cl)c3)c2cc1NC(=O)/C=C/CN(C)C [Pelitinib]
Response: Fulfilled

Request: Does this compound meet the criterion Ki < 5 µM? COc1cc(Nc2ccnc3cc(C#N)ccc23)cc(OC)c1OC [compound 21, 21]
Response: Fulfilled

Request: Quick check: Ki of COc1cc(Nc2ccnc3ccc(I)cc23)cc(OC)c1OC [compound 11, 11] under 5 µM?
Response: Not fulfilled

Request: Does the reported Ki of COc1cc(Nc2ccnc3cc(F)c(F)cc23)cc(OC)c1OC [compound 9] stay below 5 µM?
Response: Not fulfilled

----------
- System Tested: GAK (Homo sapiens, UniProt O14976)
- Assay Details: TR-FRET binding displacement assay
Provide the recorded log10 Ki for the entries that follow.
The common logarithm of Ki in nM is what is listed.

Past entries and their recorded results:
> print(dat)
                                    compound  endpoint.value
 1  C#Cc1ccc(F)c(Nc2ncnc3cc(C#N)ccc23)c1 [compound 87]            3.08
 2  COc1cc(Nc2ncnc3cc(C#N)ccc23)cc(OC)c1OC [compound 36]            2.32
 3  COc1cc(Nc2ccnc3cc(Cl)ccc23)cc(OC)c1OC [compound 17, 17]            0.11
 4  COc1cc(Nc2ccnc3cc(I)ccc23)cc(OC)c1OC [compound 19, 19]            0.64
 5  COc1cc(Nc2ccnc3ccc(I)cc23)cc(OC)c1OC [compound 11, 11]            0.58
 6  C#Cc1cccc(Nc2ncnc3cc(OC)c(OC)cc23)c1 [compound 71, 71]            0.00
 7  COc1cc(Nc2ccnc3cc(Br)ccc23)cc(OC)c1OC [compound 18, 18]            0.69
 8  COc1cc2ncnc(Nc3ccc(F)c(Cl)c3)c2cc1NC(=O)/C=C/CN1CCCCC1 [Dacomitinib]            0.85
 9  C#Cc1cccc(Nc2ncnc3ccc(S(C)(=O)=O)cc23)c1 [compound 69]            2.62
10  COc1cc(Nc2ccnc3cc(F)c(F)cc23)cc(OC)c1OC [compound 9]            0.84

For every item below, please supply its log10 Ki.
1. COc1cc(Nc2ccnc3ccc(Cl)cc23)cc(OC)c1OC [compound 10, 10]
2. C#Cc1cccc(Nc2ccnc3cc(OCCOC)c(OCCOC)cc23)c1 [compound 1, erlotinib quinoline]
3. CCOc1cc2ncc(C#N)c(Nc3ccc(OCc4ccccn4)c(Cl)c3)c2cc1NC(=O)/C=C/CN(C)C [Neratinib]

Response:
-0.17
2.00
2.46
